- Tgt: T1, human Trop2 on cells (human, UniProt P09758 27-323)
- T1 sequence (looked up): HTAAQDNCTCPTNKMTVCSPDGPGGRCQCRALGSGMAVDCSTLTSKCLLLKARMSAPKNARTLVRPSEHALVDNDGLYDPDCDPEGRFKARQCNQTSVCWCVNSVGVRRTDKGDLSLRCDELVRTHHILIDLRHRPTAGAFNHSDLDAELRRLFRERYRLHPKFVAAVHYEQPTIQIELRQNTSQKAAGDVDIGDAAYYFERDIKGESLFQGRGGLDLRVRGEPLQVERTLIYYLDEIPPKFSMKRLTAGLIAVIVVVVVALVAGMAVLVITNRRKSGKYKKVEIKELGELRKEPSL
- Assay Notes: cell-based or functional assay
Property Measured: ADCP (Donor A19143143#) EC50(nM), BxPC-3 + macrophages
Give bare numbers, in nM.

I would be grateful if you could provide ADCP (Donor A19143143#) EC50(nM), BxPC-3 + macrophages for each of the following entries.
1. PR001165 (antibody, human IgG1, kappa, V domains shown, fully human IgG1/kappa; also called antibody No. (26)) VH: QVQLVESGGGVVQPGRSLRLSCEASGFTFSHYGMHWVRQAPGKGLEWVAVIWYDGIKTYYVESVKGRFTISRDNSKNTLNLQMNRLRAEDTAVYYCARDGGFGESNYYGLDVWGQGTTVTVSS VL: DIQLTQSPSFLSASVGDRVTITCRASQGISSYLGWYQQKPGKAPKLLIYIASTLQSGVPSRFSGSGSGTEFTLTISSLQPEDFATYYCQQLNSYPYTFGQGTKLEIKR
2. PR001142 (antibody, human IgG1, kappa, V domains shown, fully human IgG1/kappa; also called antibody No. (9)) VH: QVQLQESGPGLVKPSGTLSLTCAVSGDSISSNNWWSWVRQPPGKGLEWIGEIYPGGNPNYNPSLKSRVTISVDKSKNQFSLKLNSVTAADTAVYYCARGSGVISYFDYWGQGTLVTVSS VL: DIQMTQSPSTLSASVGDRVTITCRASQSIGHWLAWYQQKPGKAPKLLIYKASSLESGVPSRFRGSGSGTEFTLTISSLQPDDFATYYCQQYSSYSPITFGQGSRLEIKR
3. comparative example 2 antibody Tab (hRS7) (antibody, human IgG1, kappa, V domains shown, prepared on the basis of sacituzumab govitecan (ChemPartner, #T07-001); naked antibody) VH: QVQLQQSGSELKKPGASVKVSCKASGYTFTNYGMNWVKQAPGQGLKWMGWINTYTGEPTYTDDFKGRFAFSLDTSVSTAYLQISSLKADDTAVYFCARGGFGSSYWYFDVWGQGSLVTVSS VL: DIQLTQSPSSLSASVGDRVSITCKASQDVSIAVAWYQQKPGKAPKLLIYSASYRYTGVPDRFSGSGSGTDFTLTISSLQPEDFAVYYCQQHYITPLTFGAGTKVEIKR

1: 0.178; 2: 0.199; 3: 0.208

Source: patent US20240067748A1
